conditions: in isopropanol, 308.15 K
MEASURE NAME: solubility (mole fraction)
No unit in the answer, please; the number alone is enough.

Given the compound NC(=O)c1nc(F)cnc1O , what is its reported solubility (mole fraction)? 0.00236

----------
settings: in DMF, 303.15 K
MEASURE NAME: solubility (mole fraction)

Given the compound NC(=O)c1nc(F)cnc1O , what is its reported solubility (mole fraction)? 0.0128

----------
settings: in methanol, 293.15 K
MEASURE NAME: solubility (mole fraction)

Given the molecule NC(=O)c1nc(F)cnc1O , what is its reported solubility (mole fraction)? 0.00147

----------
details: in acetone, 298.15 K
MEASURE NAME: solubility (mole fraction)
No unit in the answer, please; the number alone is enough.

Given the compound NC(=O)c1nc(F)cnc1O , what is its reported solubility (mole fraction)? 0.00458
